Every entry's value here was drawn from ChEMBL document CHEMBL1961873.

- system: RAC-alpha serine/threonine-protein kinase (Homo sapiens) (UniProt P31749);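 note: reported values are mean inhibition figures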
- Sequence (P31749 whole entry): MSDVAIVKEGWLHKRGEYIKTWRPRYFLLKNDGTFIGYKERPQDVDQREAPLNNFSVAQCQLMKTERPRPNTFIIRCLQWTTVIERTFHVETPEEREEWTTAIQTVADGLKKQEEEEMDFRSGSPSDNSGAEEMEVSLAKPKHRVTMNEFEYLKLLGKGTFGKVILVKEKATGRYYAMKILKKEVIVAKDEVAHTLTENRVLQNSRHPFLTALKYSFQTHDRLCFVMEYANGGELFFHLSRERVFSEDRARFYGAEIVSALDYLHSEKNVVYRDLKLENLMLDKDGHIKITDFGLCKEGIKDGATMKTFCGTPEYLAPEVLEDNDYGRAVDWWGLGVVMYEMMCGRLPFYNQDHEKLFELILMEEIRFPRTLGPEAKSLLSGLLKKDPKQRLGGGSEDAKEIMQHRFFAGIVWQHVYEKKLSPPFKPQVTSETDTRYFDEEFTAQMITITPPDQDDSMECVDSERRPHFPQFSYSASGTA
- measurementSetup: at 0.1 µM
assayEndpoint: inhibition (%)
// return numeric value only (unit: %, not printed)

• CC1(C)CC(n2cnc(-c3ccc(F)cc3)c2-c2ccnc(N)n2)CC(C)(C)N1 = -0.24

Reported inhibition for COc1cccc(Nc2nccc(-c3cnn4ncccc34)n2)c1 was 1.34

Reported inhibition for CC(C)c1ccc(-c2cc(-c3c[nH]nc3-c3ccccn3)ccn2)cc1 was 0.13

Reported inhibition for CCN1CCC(C(=O)Nc2n[nH]c3nnc(-c4cccc(F)c4F)cc23)CC1 was -0.41

Reported inhibition for COC(=O)Nc1nc2cc(Oc3ccc(NC(=O)Nc4ccccc4)cc3)ccc2[nH]1 was 0.35

Reported inhibition for CC1=C(C(=O)Nc2ccc3[nH]nc(C)c3c2)C(c2ccc(C(F)(F)F)cc2)CC(=O)N1 (stereo not given) was 1.17

Reported inhibition for CCOc1ccc2c(-c3ccnc(Nc4cc(OC)cc(C(F)(F)F)c4)n3)cnn2n1 was 0.02

Reported inhibition for CCS(=O)(=O)c1ccc(OC)c(Nc2ncc(-c3cccc(F)c3)o2)c1 was 0.91

Reported inhibition for c1ccc(-c2n[nH]cc2-c2ccnc(-c3ccc(OCCn4ccnc4)cc3)c2)nc1 was -1.55

Reported inhibition for FC(F)(F)CNc1nccc(-c2cnn3ncccc23)n1 was 0.05

Reported inhibition for CN(C)CCNC(=O)Nc1ccc(N(C)c2ccnc(Nc3ccc(CS(C)(=O)=O)cc3)n2)cc1 was 1.23

Reported inhibition for c1cnn2ncc(-c3ccnc(NCCCN4CCOCC4)n3)c2c1 was 0.48
